Target: T1, Formyl-Peptide Receptor 1 (UniProt P21462 1-350, limits assumed)
T1 sequence (looked up): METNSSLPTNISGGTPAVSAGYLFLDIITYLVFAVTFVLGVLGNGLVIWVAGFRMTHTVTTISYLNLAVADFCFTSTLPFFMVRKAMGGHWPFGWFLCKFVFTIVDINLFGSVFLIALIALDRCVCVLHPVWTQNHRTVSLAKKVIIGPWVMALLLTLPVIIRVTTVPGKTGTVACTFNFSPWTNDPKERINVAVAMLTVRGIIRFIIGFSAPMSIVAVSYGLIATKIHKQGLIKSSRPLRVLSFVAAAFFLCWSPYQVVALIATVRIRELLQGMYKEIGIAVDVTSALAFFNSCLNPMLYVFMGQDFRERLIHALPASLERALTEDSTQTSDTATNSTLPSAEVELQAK
Experiment: cell-based or functional assay
Bridges are numbered along the chain shown (N, C = ends). [ ]: non-standard residue; d: D form.
MEASURED_ENDPOINT: β-Arrestin IC50 (nM)
Write the value in nM as a bare number.

binder="cyclo(HHACWG[dP]WTICYQK[dP]P) (disulfide 4-11; SMILES CC[C@H](C)[C@@H]1NC(=O)[C@H]([C@@H](C)O)NC(=O)[C@H](Cc2c[nH]c3ccccc23)NC(=O)[C@H]2CCCN2C(=O)CNC(=O)[C@H](Cc2c[nH]c3ccccc23)NC(=O)[C@@H]2CSSC[C@H](NC1=O)C(=O)N[C@@H](Cc1ccc(O)cc1)C(=O)N[C@@H](CCC(N)=O)C(=O)N[C@@H](CCCCN)C(=O)N1CCC[C@@H]1C(=O)N1CCC[C@H]1C(=O)N[C@@H](Cc1c[nH]cn1)C(=O)N[C@@H](Cc1c[nH]cn1)C(=O)N[C@@H](C)C(=O)N2) [cyclo(-His-His-Ala-Cys-Trp-Gly-^DPro-Trp-Thr-Ile-Cys-Tyr-Gln-Lys-^DPro-Pro-)]" obs_value=342

Lab note: next binder to report on.
## Task Input cyclo(YHKCHG[dP]WTICYEK[dA]E) (disulfide 4-11; SMILES CC[C@H](C)[C@@H]1NC(=O)[C@H]([C@@H](C)O)NC(=O)[C@H](Cc2c[nH]c3ccccc23)NC(=O)[C@H]2CCCN2C(=O)CNC(=O)[C@H](Cc2c[nH]cn2)NC(=O)[C@@H]2CSSC[C@H](NC1=O)C(=O)N[C@@H](Cc1ccc(O)cc1)C(=O)N[C@@H](CCC(=O)O)C(=O)N[C@@H](CCCCN)C(=O)N[C@H](C)C(=O)N[C@@H](CCC(=O)O)C(=O)N[C@@H](Cc1ccc(O)cc1)C(=O)N[C@@H](Cc1c[nH]cn1)C(=O)N[C@@H](CCCCN)C(=O)N2) [cyclo(-Tyr-His-Lys-Cys-His-Gly-^DPro-Trp-Thr-Ile-Cys-Tyr-Glu-Lys-^DAla-Glu-)] , output reported β-Arrestin IC50.
## Result 124
